Entry source: patent US10189857B2

# Target system: UniProt P08173
# Sequence (P08173 1-479): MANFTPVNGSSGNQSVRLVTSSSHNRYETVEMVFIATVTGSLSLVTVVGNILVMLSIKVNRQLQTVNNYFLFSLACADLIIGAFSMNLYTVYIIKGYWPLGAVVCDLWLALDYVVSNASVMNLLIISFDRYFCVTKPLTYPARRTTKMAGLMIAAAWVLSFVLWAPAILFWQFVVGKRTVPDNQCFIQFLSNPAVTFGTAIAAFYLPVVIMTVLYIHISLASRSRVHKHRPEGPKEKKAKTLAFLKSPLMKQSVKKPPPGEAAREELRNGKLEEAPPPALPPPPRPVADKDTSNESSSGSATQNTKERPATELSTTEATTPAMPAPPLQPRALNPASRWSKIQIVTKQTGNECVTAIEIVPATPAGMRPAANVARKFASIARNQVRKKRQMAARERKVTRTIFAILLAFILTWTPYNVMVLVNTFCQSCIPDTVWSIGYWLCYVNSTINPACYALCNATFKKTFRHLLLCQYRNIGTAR
# Method description: mAChR M4 cell-based functional assay (calcium flux, potentiation of EC20 acetylcholine response)
# Applied conditions: M4/Gqi5/CHO-K1 cells, PAM activity as increase in EC20 acetylcholine response
Kindly apply the following: true if EC50 is less than 400 nM, false in every other case.

Query: Is EC50 of Cc1c2c(N)c(C(=O)NC3CCN(c4ccccc4)CC3)sc2nn2cnnc12 strictly below 400 nM?
Response: false

Query: Is the reported EC50 for Cc1c2c(N)c(C(=O)NC3Cc4ccccc4C3)sc2nn2cnnc12 strictly below 400 nM?
Response: true

Query: Dear reviewer, please state whether Cc1c2c(N)c(C(=O)NC3CC3)sc2nn2cnnc12 has EC50 strictly beneath 400 nM.
Response: true

Query: Take the compound COc1ccc(CNC(=O)c2sc3nn4cnnc4c(C)c3c2N)cc1 and say whether its EC50 is less than 400 nM.
Response: false

Query: Consider the compound Cc1c2c(N)c(C(=O)NCc3ccc(F)cc3)sc2nn2cnnc12 . Is its EC50 strictly less than 400 nM?
Response: false

Query: Check if EC50 falls below 400 nM for Cc1c2c(N)c(C(=O)NC3CCC3)sc2nn2cnnc12 .
Response: false

Query: Does the reported EC50 of the following compound sit strictly below 400 nM? Cc1c2c(N)c(C(=O)N3CCC(c4ccccc4)C3)sc2nn2cnnc12 (stereo not drawn)
Response: false

Query: EC50 strictly < 400 nM for this compound? Cc1c2c(N)c(C(=O)N3CCCC3)sc2nn2cnnc12
Response: false

Query: Take the compound Cc1c2c(N)c(C(=O)NCc3cccc(F)c3)sc2nn2cnnc12 and say whether its EC50 is less than 400 nM.
Response: true

----------
# Target system: Human M4 (Homo sapiens)
# Construct: expressed in transfected cells; host or cells: CHO-K1 (American Type Culture Collection), stably expressing M4 and Gqi5
# Method description: mAChR M4 cell-based functional assay (calcium flux, potentiation of EC20 acetylcholine response)
# Applied conditions: % ACh maximum at 30 μM, M4/Gqi5/CHO-K1 cells
Result type: Emax at 30 µM (%)
Answer format: numeric, % implied, no suffix.

Query: Please give the measured Emax at 30 µM for this molecule: Cc1c2c(N)c(C(=O)NCc3cccc(F)c3)sc2nn2cnnc12 [Compound 8]
Response: 78

Query: # get_value(readout='Emax at 30 µM', item= Cc1c2c(N)c(C(=O)NCc3ccc(F)cc3)sc2nn2cnnc12 [Compound 9] )
Response: 76.3

Query: Fill blank: measured Emax at 30 µM of the molecule Cc1c2c(N)c(C(=O)N3CCC(c4ccccc4)C3)sc2nn2cnnc12 (centres unmarked) [Compound 1] is ____.
Response: 38.8

Query: For the molecule COc1ccc(CNC(=O)c2sc3nn4cnnc4c(C)c3c2N)cc1 [Compound 4] , what Emax at 30 µM is on record?
Response: 80.6

Query: Given Cc1c2c(N)c(C(=O)NC3CCN(c4ccccc4)CC3)sc2nn2cnnc12 [Compound 7] , state its recorded Emax at 30 µM.
Response: 42.5
